Hello, the source for this data is ChEMBL document CHEMBL4765286, in case you need it.

target: Peroxisome proliferator-activated receptor gamma (Homo sapiens, UniProt P37231); assay: Agonist activity at human PPARgammaDEF receptor expressed in african green monkey COS7 cells transfected with pGal5-TK-pGL3/pRenilla-CMV assessed as intrinsic activity measured after 39 hrs by dual luciferase reporter assay
Sequence (P37231 whole entry): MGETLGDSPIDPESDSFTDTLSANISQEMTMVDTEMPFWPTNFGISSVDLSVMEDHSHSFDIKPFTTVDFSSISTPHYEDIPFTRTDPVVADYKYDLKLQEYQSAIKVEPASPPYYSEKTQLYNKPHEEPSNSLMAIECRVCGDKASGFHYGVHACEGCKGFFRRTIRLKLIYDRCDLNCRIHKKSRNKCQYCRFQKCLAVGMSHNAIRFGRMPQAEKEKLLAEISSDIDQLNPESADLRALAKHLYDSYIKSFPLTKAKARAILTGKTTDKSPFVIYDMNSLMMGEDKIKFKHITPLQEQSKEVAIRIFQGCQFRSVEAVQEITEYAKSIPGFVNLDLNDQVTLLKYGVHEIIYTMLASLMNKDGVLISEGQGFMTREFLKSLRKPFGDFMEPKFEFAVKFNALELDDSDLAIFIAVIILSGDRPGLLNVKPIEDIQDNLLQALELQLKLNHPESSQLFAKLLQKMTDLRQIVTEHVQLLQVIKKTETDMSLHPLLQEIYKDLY
assay.metric: EC50 (µM)
Entry rule: numbers only, all in µM.

Provide EC50 value for the following molecule: "CCCc1nc2c(C)cc(-c3nc4ccccc4n3C)cc2n1Cc1ccc(-c2ccccc2C(N)=O)cc1"
9.1

====

biological target: Signal transducer and activator of transcription 5A (Homo sapiens); assay: Inhibition of STAT5 phosphorylation in imatinib-resistant human K562 cells in presence of imatinib at 10 uM measured after 6 hrs by Western blot assay; assay type: cell-based
The source made the active and inactive calls. The calls are words filed in the database; no cut-off is given here.
Classes to choose from: yes (active), no (inactive)

[[record]]
compound_smiles = "CCCc1nc2c(C(=O)OC)cccc2n1Cc1ccc(-c2ccccc2C(=O)OC)cc1"
group = "yes"

[[record]]
compound_smiles = "CCCc1nc2cccc(C(=O)OC)c2n1Cc1ccc(-c2ccccc2C(=O)OC)cc1"
group = "yes"

[[record]]
compound_smiles = "CCCc1nc2cccc(C(=O)O)c2n1Cc1ccc(-c2ccccc2C(=O)O)cc1"
group = "no"

[[record]]
compound_smiles = "CCCc1nc2c(C(=O)O)cccc2n1Cc1ccc(-c2ccccc2C(=O)OC)cc1"
group = "yes"

[[record]]
compound_smiles = "CCCc1nc2c(C)cc(-c3nc4ccccc4n3C)cc2n1Cc1ccc(-c2ccccc2C(=O)O)cc1"
group = "yes"


Hello, I am checking results. What call was entered for "CCCc1nc2c(C(=O)O)cccc2n1Cc1ccc(-c2ccccc2C(=O)O)cc1" ?
no

Per the assay record, what outcome was assigned to "CCCc1nc2c(C)cc(-c3nc4ccccc4n3C)cc2n1Cc1ccc(-c2ccccc2C(N)=O)cc1" ?
yes

====

test: Cytotoxicity against human HS5 cells assessed as cell death at 10 uM measured after 72 hrs by Propidium iodide stain based FACS analysis; conditions: hs5, 72 h
assay.metric: Activity

Here are 4 compounds together with their reported answers.
[[record]]
compound = "CCOc1nc2cccc(C(=O)OC(C)OC(=O)OC3CCCCC3)c2n1Cc1ccc(-c2ccccc2-c2nnn[nH]2)cc1 (centres undefined) [CANDESARTAN CILEXETIL]"
assay_metric = "Activity"
observed_value = "Non-Toxic"

[[record]]
compound = "CCOc1nc2cccc(C(=O)O)c2n1Cc1ccc(-c2ccccc2-c2nnn[nH]2)cc1 [CANDESARTAN]"
assay_metric = "Activity"
observed_value = "Non-Toxic"

[[record]]
compound = "CCCc1nc2c(C(=O)O)cccc2n1Cc1ccc(-c2ccccc2C(=O)OC)cc1"
assay_metric = "Activity"
observed_value = "Non-Toxic"

[[record]]
compound = "CCc1ccc(CCOc2ccc(CC3SC(=O)NC3=O)cc2)nc1 (centres undefined) [PIOGLITAZONE]"
assay_metric = "Activity"
observed_value = "Non-Toxic"


Assign Activity to the following record: "CCCc1nc2c(C(=O)O)cccc2n1Cc1ccc(-c2ccccc2C(=O)O)cc1"
Non-Toxic

Return reported Activity. Input compound: CCCc1nc(C(C)(C)O)c(C(=O)O)n1Cc1ccc(-c2ccccc2-c2nnn[nH]2)cc1 [OLMESARTAN]
Non-Toxic

Report Activity for "CCCc1nc2c(C)cc(-c3nc4ccccc4n3C)cc2n1Cc1ccc(-c2ccccc2C(N)=O)cc1"
Non-Toxic

Give recorded Activity. CCCCC1=NC2(CCCC2)C(=O)N1Cc1ccc(-c2ccccc2-c2nnn[nH]2)cc1 [IRBESARTAN]
Non-Toxic

Input CCCc1nc2c(C)cc(-c3nc4ccccc4n3C)cc2n1Cc1ccc(-c2ccccc2C(=O)O)cc1 [TELMISARTAN] , output reported Activity.
Non-Toxic

Recall and state the measured Activity for CCCCc1nc(Cl)c(CO)n1Cc1ccc(-c2ccccc2-c2nn[nH]n2)cc1 [LOSARTAN] .
Non-Toxic

Tell us which Activity value is on record for CCCc1nc(C(C)(C)O)c(C(=O)OCc2oc(=O)oc2C)n1Cc1ccc(-c2ccccc2-c2nnn[nH]2)cc1 [OLMESARTAN MEDOXOMIL]
Non-Toxic

Answer with reported Activity of "CCCc1nc2cccc(C(=O)O)c2n1Cc1ccc(-c2ccccc2C(=O)O)cc1"
Non-Toxic

Note down Activity recorded for "CCCc1nc2cccc(C(=O)OC)c2n1Cc1ccc(-c2ccccc2C(=O)OC)cc1"
Non-Toxic

Note Activity for the compound shown: "CCCc1nc2c(C(=O)OC)cccc2n1Cc1ccc(-c2ccccc2C(=O)OC)cc1"
Non-Toxic
